# TARGET UNDER TEST: T1, 4H2729-bA
# T1 chain: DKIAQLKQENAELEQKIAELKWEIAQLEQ
# METHOD SUMMARY: two-hybrid library CCNG1;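 also: natural log of median RNA to DNA barcode read ratio; higher means stronger binding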
METRIC NAME: interaction score
Form rule: numeric answer, no unit written next to it.

(Q) Item under review: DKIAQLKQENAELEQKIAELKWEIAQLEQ [4H2729-bA] . Reported interaction score?
(A) -0.254

(Q) Item under review: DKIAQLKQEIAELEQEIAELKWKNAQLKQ [4H2576-bA] . Reported interaction score?
(A) 1.22

(Q) Item under review: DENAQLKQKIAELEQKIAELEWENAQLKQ [4H1828-bA] . Reported interaction score?
(A) -0.137

(Q) Item under review: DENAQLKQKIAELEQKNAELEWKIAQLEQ [4H1845-bA] . Reported interaction score?
(A) -0.636

(Q) Item under review: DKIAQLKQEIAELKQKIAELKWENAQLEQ [4H2667-bA] . Reported interaction score?
(A) 0.719
